- Target: T1, Histidine-tagged human CD40 protein (hCD40-His) (human, UniProt P25942 21-193)
- T1 construct: not shown: histidine tag
- T1 sequence (P25942 21-193 limits assumed): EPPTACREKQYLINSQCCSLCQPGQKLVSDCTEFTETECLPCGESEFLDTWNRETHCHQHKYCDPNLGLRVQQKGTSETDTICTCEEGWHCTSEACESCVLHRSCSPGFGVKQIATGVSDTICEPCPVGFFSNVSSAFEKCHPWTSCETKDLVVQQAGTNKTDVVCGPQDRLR
- Assay: SPR, Biacore T200; antibody on Protein A chip, hCD40-His injected; 1:1 fit
I would appreciate it if you labelled entries 1 when kon is 100000 M⁻¹ s⁻¹ or higher, otherwise 0.

# Binder, Assigned category
rows = [
    ("4H6-H3K1-IgG4 (antibody, V domains shown, Humanized) VH: EVQLQESGPGLVKPSQTLSLTCTVSGDSVSSGYWNWIRKHPGKKLEYMGFISYSGSTYYTPSLKSRITISRDTSKNQFSLKLSSVTAADTAVYFCARFRRYDDGVDYWGQGTLVTVSS VL: DIQMTQSPSAMSASVGDRVTITCRASHEISGYLSWFQQKPGGVIKRLINAASTLASGVPSRFSGSRSGTEFTLTISSLQPEDFATYYCLQYSSYPWTFGGGTKLEIK", 0),
    ("7F10-H2K1-IgG4 (antibody, V domains shown, Humanized) VH: EVQLVESGGGLVQPGGSLRLSCATSGFTFSDYYMYWVRQAPGKRLEWVAYISYGGDSTFYPDTVRGRFTISRDNAKNSLYLQMSSLKAEDTAVYYCARPAPSAHSYYLDYWGQGTLLTVSS VL: DIQMTQSPSSLSASVGDRVTITCRASQDISNYLNWYQQKPGGAVKLLIYYTSRLHSGLPSRFSGSGSGTDFTFTISSLQPEDIATYYCQQGKTLPFTFASGTKLEIK", 1),
    ("4H6-H4K4-IgG4 (antibody, V domains shown, Humanized) VH: EVQLQESGPGLVKPSQTLSLTCTVSGDSVSSGYWNWIRKFPGKKLEYMGFISYSGSTYYTPSLKSRITISRDTSKNQFSLKLSSVTAADTAVYFCARFRRYDDGVDYWGQGTLVTVSS VL: DIQMTQSPSAMSASVGDRVTLTCRASHEISGYLSWIQQKPGGTIKRLINAASTLASGVPSRFSGSRSGTEYTLTISSLQPEDFADYYCLQYSSYPWTFGGGTKLEIK", 1),
    ("4H6-H4K1-IgG4 (antibody, V domains shown, Humanized) VH: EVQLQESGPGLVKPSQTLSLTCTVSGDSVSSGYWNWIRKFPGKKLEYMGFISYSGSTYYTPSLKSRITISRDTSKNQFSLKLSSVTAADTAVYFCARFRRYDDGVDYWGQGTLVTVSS VL: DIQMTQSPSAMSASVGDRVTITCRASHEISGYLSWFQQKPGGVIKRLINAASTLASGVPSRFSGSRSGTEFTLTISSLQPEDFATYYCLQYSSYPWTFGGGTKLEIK", 1),
]

Now take the following binder into account.
Prompt: State whether the measured kon reaches 100000 M⁻¹ s⁻¹, counting equality as reaching it, for 6A7-H3K3-IgG4 (antibody, V domains shown, Humanized) VH: QVQLVQSGAEVKKPGASVKVSCKASGYTFISYYIYWVRQAPGQGLEWIGGINPRNGGTNFNEKFKSRATLTVDTSISTAYMELSRLRSEDTAVYYCTRHGNGVYWGQGTTVTVSS VL: DVVMTQSPLSLPVTLGDPASISCRSSQSLLHSNGNTYLHWYQQRPGQSPNHLIYQVSNRFSGVPDRFSGSGSGTDFTLKISRVEAEDVGVYFCSQTTHVPWTFGGGTKLEIK
Completion: 1
